Structures can show the parent of a compound that is named as a salt.
Reported melting point values are given for each entry in this list.

[
  {
    "molecule": "COc1cccc2c1occ2[C@H]1CC[C@H](N2CCN(c3cc(F)cc4cccnc34)CC2)CC1 [Compound 60]",
    "melting point": "195 to 197 °C"
  },
  {
    "molecule": "COc1cccc2c1occ2[C@H]1CC[C@@H](N2CCN(c3ccc(F)c4cccnc34)CC2)CC1 [Compound 57]",
    "melting point": "143 to 146 °C"
  },
  {
    "molecule": "Fc1ccc2scc([C@H]3CC[C@H](N4CCN(c5ccc(Cl)c6cccnc56)CC4)CC3)c2c1 [Compound 52]",
    "melting point": "195 to 197 °C"
  },
  {
    "molecule": "COc1ccc2occ(CCN3CCN(c4cc(Cl)cc5cccnc45)CC3)c2c1 [Compound 22]",
    "melting point": "72 °C"
  },
  {
    "molecule": "COc1cccc2c(C(C)CN3CCN(c4cc(Cl)cc5cccnc45)CC3)coc12 (stereo not drawn) (as salt: HCl) [Compound 33]",
    "melting point": "55 to 58 °C"
  },
  {
    "molecule": "COc1ccc2occ([C@H]3CC[C@@H](N4CCN(c5cc(F)cc6cccnc56)CC4)CC3)c2c1 [Compound 67]",
    "melting point": "153 to 160 °C"
  },
  {
    "molecule": "Clc1cc(N2CCN([C@H]3CC[C@@H](c4csc5ccccc54)CC3)CC2)c2ncccc2c1 [Compound 41]",
    "melting point": "164 to 165 °C"
  },
  {
    "molecule": "COc1cccc2c(CCN3CCN(c4cc(Cl)cc5cccnc45)CC3)coc12 (as salt: HCl) [Compound 20]",
    "melting point": "248 °C"
  },
  {
    "molecule": "COc1cc(N2CCN([C@H]3CC[C@@H](c4cc5ccccc5s4)CC3)CC2)c2ncccc2c1 [Compound 70]",
    "melting point": "184 to 186 °C"
  }
]

* * *

Each item that follows carries a reported Ki.
# targetOrSystem: UniProtKB P08908
# Sequence (P08908 1-422): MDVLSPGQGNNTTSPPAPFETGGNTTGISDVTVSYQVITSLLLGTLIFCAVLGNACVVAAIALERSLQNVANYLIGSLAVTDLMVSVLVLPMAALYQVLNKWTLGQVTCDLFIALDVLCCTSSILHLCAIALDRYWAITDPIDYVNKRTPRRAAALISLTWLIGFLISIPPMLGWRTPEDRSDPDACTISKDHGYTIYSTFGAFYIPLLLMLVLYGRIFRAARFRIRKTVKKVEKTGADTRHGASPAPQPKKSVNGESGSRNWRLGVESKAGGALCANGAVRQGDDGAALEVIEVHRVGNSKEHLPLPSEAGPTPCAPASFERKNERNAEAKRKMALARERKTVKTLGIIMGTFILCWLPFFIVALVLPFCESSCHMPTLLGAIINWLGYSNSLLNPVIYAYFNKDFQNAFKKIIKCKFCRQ

[
  {
    "inputSmiles": "COc1cccc2c1occ2[C@H]1CC[C@@H](N2CCN(c3cc(F)cc4cccnc34)CC2)CC1",
    "targetOrSystem": "UniProtKB P08908",
    "Ki": "1.93 nM"
  },
  {
    "inputSmiles": "COc1ccc2occ([C@H]3CC[C@@H](N4CCN(c5cc(F)cc6cccnc56)CC4)CC3)c2c1",
    "targetOrSystem": "UniProtKB P08908",
    "Ki": "14.4 nM"
  },
  {
    "inputSmiles": "Fc1ccc2scc([C@H]3CC[C@@H](N4CCN(c5ccc(Cl)c6cccnc56)CC4)CC3)c2c1",
    "targetOrSystem": "UniProtKB P08908",
    "Ki": "4.14 nM"
  },
  {
    "inputSmiles": "COc1ccc2occ(CCN3CCN(c4cc(Cl)cc5cccnc45)CC3)c2c1",
    "targetOrSystem": "UniProtKB P08908",
    "Ki": "2.69 nM"
  },
  {
    "inputSmiles": "Fc1cc(N2CCN([C@H]3CC[C@H](c4csc5ccccc54)CC3)CC2)c2ncccc2c1",
    "targetOrSystem": "UniProtKB P08908",
    "Ki": "130 nM"
  },
  {
    "inputSmiles": "COc1ccc2c(CCN3CCN(c4cc(Cl)cc5cccnc45)CC3)coc2c1",
    "targetOrSystem": "UniProtKB P08908",
    "Ki": "0.81 nM"
  },
  {
    "inputSmiles": "COc1cccc2c(CCN3CCN(c4cc(Cl)cc5cccnc45)CC3)coc12",
    "targetOrSystem": "UniProtKB P08908",
    "Ki": "0.14 nM"
  },
  {
    "inputSmiles": "COc1cc(N2CCN([C@H]3CC[C@H](c4csc5ccc(F)cc54)CC3)CC2)c2ncccc2c1",
    "targetOrSystem": "UniProtKB P08908",
    "Ki": "25.9 nM"
  },
  {
    "inputSmiles": "COc1cccc2c(CCN3CCN(c4cccc5cccnc45)CC3)coc12",
    "targetOrSystem": "UniProtKB P08908",
    "Ki": "0.11 nM"
  },
  {
    "inputSmiles": "COc1ccc2c(CCN3CCN(c4cc(C)cc5cccnc45)CC3)coc2c1",
    "targetOrSystem": "UniProtKB P08908",
    "Ki": "0.94 nM"
  },
  {
    "inputSmiles": "Fc1ccc2occ(CCN3CCN(c4cccc5cccnc45)CC3)c2c1",
    "targetOrSystem": "UniProtKB P08908",
    "Ki": "0.37 nM"
  },
  {
    "inputSmiles": "Cc1cc(N2CCN(CCc3coc4ccccc34)CC2)c2ncccc2c1",
    "targetOrSystem": "UniProtKB P08908",
    "Ki": "1.93 nM"
  },
  {
    "inputSmiles": "COc1ccc2occ([C@H]3CC[C@H](N4CCN(c5ccc(Cl)c6cccnc56)CC4)CC3)c2c1",
    "targetOrSystem": "UniProtKB P08908",
    "Ki": "1.99 nM"
  },
  {
    "inputSmiles": "Clc1ccc2occ(CCN3CCN(c4cccc5cccnc45)CC3)c2c1",
    "targetOrSystem": "UniProtKB P08908",
    "Ki": "2.92 nM"
  },
  {
    "inputSmiles": "Clc1cc(N2CCN(CCc3coc4ccc(Cl)cc34)CC2)c2ncccc2c1",
    "targetOrSystem": "UniProtKB P08908",
    "Ki": "41.3 nM"
  },
  {
    "inputSmiles": "Fc1cc(N2CCN([C@H]3CC[C@@H](c4csc5ccccc54)CC3)CC2)c2ncccc2c1",
    "targetOrSystem": "UniProtKB P08908",
    "Ki": "1.17 nM"
  },
  {
    "inputSmiles": "Clc1cc(N2CCN([C@H]3CC[C@H](c4csc5ccccc54)CC3)CC2)c2ncccc2c1",
    "targetOrSystem": "UniProtKB P08908",
    "Ki": "140 nM"
  }
]
